molecular target: T1, CD3 on primary human pan T cells (human, UniProt P07766 23-207); test: flow cytometry, pan T-cells
T1 construct: on cells it stands in the TCR/CD3 complex; also called Pan T-cells (CD3-positive); endogenous CD3
T1 sequence (P07766 23-207 limits assumed): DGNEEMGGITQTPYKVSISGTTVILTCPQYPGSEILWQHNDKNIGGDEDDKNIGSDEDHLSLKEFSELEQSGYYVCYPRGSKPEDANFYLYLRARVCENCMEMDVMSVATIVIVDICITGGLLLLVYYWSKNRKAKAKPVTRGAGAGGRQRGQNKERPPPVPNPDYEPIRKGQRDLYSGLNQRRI
Endpoint Name: % Binding retained on T-cells, 60° C. (fraction)
Express your answer in fraction, writing the number without its unit.

q: Let me know recorded % Binding retained on T-cells, 60° C. for CD3B2042 (scFv) scFv: QVQLVQSGAEVKKPGSSVKVSCKASGYTFTRSTMHWVRQAPGQGLEWIGYINPSSAYTNYNQKFQGRVTLTADKSTSTAYMELSSLRSEDTAVYYCASPQVHYDYNGFPYWGQGTLVTVSSGGSEGKSSGSGSESKSTGGSEIVLTQSPATLSASPGERVTLSCSASSSVSYMNWYQQKPGTSPRRLIYDSSKLASGVPARFSGSGSGRDYTLTISSLEPEDFAVYYCQQWSRNPPTFGGGTKVEIK , thanks.
a: 0.935
